subjectOfTest: T1, NifA 2C-DBD (DNA binding domain with upstream Cys pair) (Gluconacetobacter diazotrophicus, UniProt A9H5T0 520-581)
T1 sequence: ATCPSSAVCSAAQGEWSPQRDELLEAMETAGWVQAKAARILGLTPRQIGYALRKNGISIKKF
protocol: fluorescence anisotropy; oxidized (disulfide), no DTT; 10 mM Tris pH 8, 60 mM NaCl, 0.2 mM MgCl2 (5 mM DTT when reducing), 900 nM probe, 0-80 µM protein, 30 min at room temperature
particulars: protein: recombinant; tags: N-terminal His-tag (pET28a, NheI/BamHI) removed with thrombin; label: 5' TAMRA on forward strand; blunt
readoutName: pKd
Keep it numeric: pKd is minus log10 of the concentration in mol/L.

Supply measured pKd of nifH-UAS duplex, TAMRA-labeled (dsDNA) DNA 1: CGGTTTTGTCAGGCTTCGCACAAAGCCG DNA 2: CGGCTTTGTGCGAAGCCTGACAAAACCG in your reply.
4.46
